System: HOP-92 NSCLC
Experiment: NCI tumour cell line growth inhibition, 48 h
Output y for TGI not less than 30 µM; output n otherwise.

>>> class("CC(=O)OCC1OC(n2c3c(c(-c4ccc(Cl)cc4)c(C#N)c2=S)CCCC3)C(OC(C)=O)C(OC(C)=O)C1OC(C)=O (stereo not given)")
"y"
>>> class("Cc1cccc(C)c1N1C(=O)C(=O)C(c2nc3ccccc3s2)/C(=N\\N)C1=O (stereo not given)")
"y"
>>> class("O=C1c2ccccc2-c2c1c1ccccc1c(=O)n2CCCNCCn1c2c(c3ccccc3c1=O)C(=O)c1ccccc1-2")
"n"
>>> class("N#Cc1cnc(Nc2cc(NC[C@H]3CNCCO3)c(C(F)(F)F)cn2)cn1")
"n"
>>> class("CN(CCCNC(=O)c1cn(C)c2c1Cc1ccccc1-2)CCCNC(=O)c1cn(C)c2c1Cc1ccccc1-2")
"n"
>>> class("N#CC(C(=O)/C(=N\\NC(N)=O)C(C#N)c1ccccc1)c1ccccc1 (stereo not given)")
"y"
>>> class("COC(=O)/C=C1/OC(c2ccccc2)=C(C)C1=O")
"n"
